# ASSAY DETAILS: Plasma PK parameters at Week 2 and Week 8, interim analysis (Example 4)
# Format: in vivo, human
# CONDITION LABEL: human, in vivo, Week 2, Child-Pugh B (n = 9), plasma
PROPERTY LABEL: Cmax (ng/mL)

SMILES TEXT: CC(C)OC(=O)[C@H](C)N[P@](=O)(OC[C@H]1O[C@@H](n2ccc(=O)[nH]c2=O)[C@](C)(F)[C@@H]1O)Oc1ccccc1
PROPERTY LABEL: Cmax
READOUT VALUE: 1740

====

# ASSAY DETAILS: Plasma PK parameters at Week 2 and Week 8, interim analysis (Example 4)
# Format: in vivo, human
# CONDITION LABEL: human, in vivo, Week 8, Child-Pugh B (n = 9), plasma

SMILES TEXT: CC(C)OC(=O)[C@H](C)N[P@](=O)(OC[C@H]1O[C@@H](n2ccc(=O)[nH]c2=O)[C@](C)(F)[C@@H]1O)Oc1ccccc1
Cmax (µg/mL): 1.42

====

# ASSAY DETAILS: Plasma PK parameters at Week 2 and Week 8, interim analysis (Example 4)
# Type: in vivo, human
# CONDITION LABEL: human, in vivo, Week 8, Child-Pugh A (n = 18), plasma

SMILES TEXT: CC(C)OC(=O)[C@H](C)N[P@](=O)(OC[C@H]1O[C@@H](n2ccc(=O)[nH]c2=O)[C@](C)(F)[C@@H]1O)Oc1ccccc1
AUC, ng·h/mL: 2730

====

# ASSAY DETAILS: Plasma PK parameters at Week 2 and Week 8, interim analysis (Example 4)
# Assay type: in vivo, human
# Design: concentration or dose not given beside the values
# CONDITION LABEL: human, plasma, oral, Week 2, Child-Pugh A (n = 19)
PROPERTY LABEL: AUC (µg·h/mL)

SMILES TEXT: COc1ccc2c(O[C@@H]3C[C@H]4C(=O)N[C@]5(C(=O)NS(=O)(=O)C6CC6)C[C@H]5/C=C\CCCCN(C)C(=O)[C@@H]4C3)cc(-c3nc(C(C)C)cs3)nc2c1C
PROPERTY LABEL: AUC
READOUT VALUE: 114

====

# ASSAY DETAILS: Plasma PK parameters at Week 2 and Week 8, interim analysis (Example 4)
# Format: in vivo, human
# CONDITION LABEL: human, in vivo, Week 8, Child-Pugh A (n = 18), plasma
PROPERTY LABEL: Cmax (ng/mL)

SMILES TEXT: CC(C)OC(=O)[C@H](C)N[P@](=O)(OC[C@H]1O[C@@H](n2ccc(=O)[nH]c2=O)[C@](C)(F)[C@@H]1O)Oc1ccccc1
READOUT VALUE: 1280

====

# ASSAY DETAILS: Plasma PK parameters at Week 2 and Week 8, interim analysis (Example 4)
# Assay type: in vivo, human
# Parameters: concentration or dose not given beside the values
# CONDITION LABEL: human, plasma, oral, Week 8, Child-Pugh B (n = 9)
PROPERTY LABEL: AUC

SMILES TEXT: COc1ccc2c(O[C@@H]3C[C@H]4C(=O)N[C@]5(C(=O)NS(=O)(=O)C6CC6)C[C@H]5/C=C\CCCCN(C)C(=O)[C@@H]4C3)cc(-c3nc(C(C)C)cs3)nc2c1C
READOUT VALUE: 176000 ng·h/mL
//
SMILES TEXT: COC(=O)N[C@H](C(=O)N1CCC[C@H]1c1nc(-c2ccc(-c3ccc(-c4c[nH]c([C@@H]5CCCN5C(=O)[C@@H](NC(=O)OC)C(C)C)n4)cc3)cc2)c[nH]1)C(C)C
READOUT VALUE: 13500 ng·h/mL

====

# ASSAY DETAILS: Plasma PK parameters at Week 2 and Week 8, interim analysis (Example 4)
# Assay type: in vivo, human
# CONDITION LABEL: human, in vivo, Week 2, Child-Pugh A (n = 19), plasma
# Procedure: Methods: HCV treatment-naïve or (peg)IFN±ribavirin treatment-experienced GT1/4-infected cirrhotic pts≧18 yrs with Child-Pugh (CP) score<7 (Class A) with evidence of portal hypertension or 7-9 (Class B) were enrolled. Pts received 12 wks of SMV (150 mg once daily [QD]), DCV (60 mg QD) and SOF (400 mg QD). Primary efficacy endpoint: sustained virologic response 12 wks after end of treatment (EOT, SVR12). Key secondary endpoints: SVR4, on-treatment failure, viral relapse, PK and safety.

SMILES TEXT: CC(C)OC(=O)[C@H](C)N[P@](=O)(OC[C@H]1O[C@@H](n2ccc(=O)[nH]c2=O)[C@](C)(F)[C@@H]1O)Oc1ccccc1
MEASURE UNIT: ng/mL
Cmax: 1570

====

# ASSAY DETAILS: Plasma PK parameters at Week 2 and Week 8, interim analysis (Example 4)
# Type: in vivo, human
# CONDITION LABEL: human, plasma, oral, Week 2, Child-Pugh A (n = 19)

SMILES TEXT: COc1ccc2c(O[C@@H]3C[C@H]4C(=O)N[C@]5(C(=O)NS(=O)(=O)C6CC6)C[C@H]5/C=C\CCCCN(C)C(=O)[C@@H]4C3)cc(-c3nc(C(C)C)cs3)nc2c1C
Cmax, ng/mL: 6980
//
SMILES TEXT: COC(=O)N[C@H](C(=O)N1CCC[C@H]1c1nc(-c2ccc(-c3ccc(-c4c[nH]c([C@@H]5CCCN5C(=O)[C@@H](NC(=O)OC)C(C)C)n4)cc3)cc2)c[nH]1)C(C)C
Cmax, ng/mL: 1150
